Molecular target: HDAC1 (Homo sapiens)
Construct: HDAC1 (full length, C-terminal His tag, C-terminal FLAG tag, BPS Bioscience, cat. #: 50051); FLAG (C); purchased BPS Bioscience 50051
Sequence (Q13547 whole entry): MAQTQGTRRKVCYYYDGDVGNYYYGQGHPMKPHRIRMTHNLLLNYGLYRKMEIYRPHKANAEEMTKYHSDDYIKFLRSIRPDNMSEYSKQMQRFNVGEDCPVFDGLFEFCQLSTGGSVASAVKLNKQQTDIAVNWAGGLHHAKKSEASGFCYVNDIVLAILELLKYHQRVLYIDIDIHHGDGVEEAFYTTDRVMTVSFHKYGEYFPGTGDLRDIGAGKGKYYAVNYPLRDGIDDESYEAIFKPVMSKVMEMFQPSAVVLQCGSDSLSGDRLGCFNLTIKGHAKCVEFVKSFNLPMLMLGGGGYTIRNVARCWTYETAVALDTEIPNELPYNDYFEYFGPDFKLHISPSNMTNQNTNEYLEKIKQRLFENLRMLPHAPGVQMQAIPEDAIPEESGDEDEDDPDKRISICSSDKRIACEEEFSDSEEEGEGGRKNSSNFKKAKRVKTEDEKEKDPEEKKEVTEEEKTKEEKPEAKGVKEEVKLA
Test: Recombinant HDAC µSPOT microarray binding assay;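 note: slides with spotted peptides incubated with six HDAC concentrations in HEPES buffer pH 7.4, spot intensities fitted by four-parameter logistic, EC50 as enzyme concentration giving half-maximal binding signal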
Non-standard residues stand in square brackets, D forms with d. Residues, ends and D or L forms follow the SMILES beside them. *: point of attachment. Asu = N[C@@H](CCCCCC(=O)O)C(=O)O; NHOH = ON*
Assay metric: EC50

Ask: Kindly indicate its recorded EC50. Item: CC(=O)NCC(=O)NCC(=O)N[C@@H](CCCCCC(=O)NO)C(=O)N[C@@H](C)C(=O)N[C@@H](CCCNC(=N)N)C(=O)N[C@@H](C)C(=O)N[C@@H](CCCCN)C(=O)N[C@@H](C)C(=O)N[C@@H](CCCCN)C(=O)N[C@H](C(=O)N[C@@H](CCCNC(=N)N)C(=O)N[C@@H](CO)C(=O)N[C@@H](CO)C(=O)N[C@@H](CCCNC(=N)N)C(=O)N[C@@H](C)C(=O)NCC(=O)N[C@@H](Cc1c[nH]c2ccccc12)C(N)=O)[C@@H](C)O [9a] (Ac-GG[Asu](NHOH)ARAKAKTRSSRAGW-NH2)
Reply: > 0.0251 µM
